Recorded values, source ChEMBL document CHEMBL1764984.

subject-of-test: Mitogen-activated protein kinase 14 (Homo sapiens, UniProt Q16539)
Sequence (Q16539 whole entry): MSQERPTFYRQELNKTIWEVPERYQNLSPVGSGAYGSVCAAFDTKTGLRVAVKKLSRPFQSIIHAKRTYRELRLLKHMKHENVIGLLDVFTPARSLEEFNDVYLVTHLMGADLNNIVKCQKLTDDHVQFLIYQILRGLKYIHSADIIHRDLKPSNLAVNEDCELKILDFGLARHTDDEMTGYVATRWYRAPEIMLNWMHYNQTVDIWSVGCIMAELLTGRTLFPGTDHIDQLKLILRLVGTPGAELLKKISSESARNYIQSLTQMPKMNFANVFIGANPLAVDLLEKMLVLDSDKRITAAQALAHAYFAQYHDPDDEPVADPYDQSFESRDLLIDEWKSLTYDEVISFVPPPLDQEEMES
assay-info: Inhibition of human recombinant p38alpha assessed as incorporation of 33P from gamma-[33P]ATP into myelin basic protein after 30 mins by scintillation counting
Could you please report measured IC50 for the items listed next?
Numeric answer only, unit nM assumed.

IN: Item "O=c1c(Oc2ccc(F)cc2F)cc2cnc(NC3CCOCC3)nc2n1C1CC1" : provide IC50
OUT: 9

IN: Item "CS(=O)(=O)CCCn1c(=O)c(Oc2ccc(F)cc2F)cc2cnc(NC3CCOCC3)nc21" : provide IC50
OUT: 6

IN: Item "O=c1c(Oc2ccc(F)cc2F)cc2cnc(NC3CCOCC3)nc2n1C[C@H](O)CO" : provide IC50
OUT: 7

IN: Item "CC(C)(O)Cn1c(=O)c(Oc2ccc(F)cc2F)cc2cnc(NC3CCOCC3)nc21" : provide IC50
OUT: 12

IN: Item "Cn1c(=O)c(Oc2ccccc2F)cc2cnc(NC3CCOCC3)nc21" : provide IC50
OUT: 15
